Listing: pKi of selected molecules
target: human H4 receptor (Homo sapiens, UniProt Q9H3N8); test: biochemical
Sequence (Q9H3N8 whole entry): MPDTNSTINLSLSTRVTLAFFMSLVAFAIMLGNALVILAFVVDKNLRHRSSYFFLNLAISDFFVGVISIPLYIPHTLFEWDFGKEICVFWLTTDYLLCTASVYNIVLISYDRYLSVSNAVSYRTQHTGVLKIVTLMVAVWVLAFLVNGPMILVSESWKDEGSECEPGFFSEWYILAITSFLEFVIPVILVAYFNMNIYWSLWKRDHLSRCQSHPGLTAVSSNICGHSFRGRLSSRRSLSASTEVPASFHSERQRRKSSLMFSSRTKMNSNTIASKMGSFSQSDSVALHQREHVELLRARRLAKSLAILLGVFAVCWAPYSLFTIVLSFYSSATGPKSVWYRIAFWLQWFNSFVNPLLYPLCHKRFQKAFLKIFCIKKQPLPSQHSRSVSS
pKi: −log10 of the molar value. Counter-ions that a name gives are not always drawn.

- molecule: "CCCc1c(-c2ccccc2)nc2n1CCc1ccccc1C2OC1CCN(C)CC1 (stereo not drawn)"
  system name: "human H4 receptor (Homo sapiens, UniProt Q9H3N8)"
  pKi: "> 6.52"
- molecule: "COCc1ccc(-c2cn3c(n2)C(OC2CCN(C)CC2)c2ccccc2CC3)cc1 (stereo not drawn) [Example 19, oxalate]"
  system name: "human H4 receptor (Homo sapiens, UniProt Q9H3N8)"
  pKi: "> 6.52"
- molecule: "CN1CCC(OC2c3cccc(-c4ccc(F)cc4)c3CCn3cc(-c4ccccc4)nc32)CC1 (stereo not drawn)"
  system name: "human H4 receptor (Homo sapiens, UniProt Q9H3N8)"
  pKi: "> 6.52"
- molecule: "CN1CCC(OC2c3ccccc3CCn3cc(-c4ccc(F)cc4)nc32)CC1 (stereo not drawn)"
  system name: "human H4 receptor (Homo sapiens, UniProt Q9H3N8)"
  pKi: "> 7.52"
- molecule: "CN1CCC(OC2c3ccccc3CCn3c2nc(I)c3C(N)=O)CC1 (stereo not drawn)"
  system name: "human H4 receptor (Homo sapiens, UniProt Q9H3N8)"
  pKi: "> 6.00"
- molecule: "CN1CCC(OC2c3ccccc3CCn3cc(-c4ccccn4)nc32)CC1 (stereo not drawn)"
  system name: "human H4 receptor (Homo sapiens, UniProt Q9H3N8)"
  pKi: "> 6.00"

Look up and state reported pKi for Cc1cccc(-c2nc3n(c2C)CCc2ccccc2C3OC2CCN(C)CC2)c1 (stereo not drawn)
> 7.52

Write down pKi measured for item CN1CCC(OC2c3ccccc3CCn3cc(C4=CCCCC4)nc32)CC1 (stereo not drawn) [Example 62, oxalate]
> 6.52

Please report pKi for the following molecule: CN1CCC(OC2c3ccccc3CCn3cc(-c4ccc(CNC(=O)OC(C)(C)C)cc4)nc32)CC1 (stereo not drawn)
> 6.52

Please indicate pKi recorded for CCSc1ccc(-c2cn3c(n2)C(OC2CCN(C)CC2)c2ccccc2CC3)cc1 (stereo not drawn) [Example 46, oxalate]
> 7.52

Return pKi for the following molecule: Cc1c(-c2ccc(NC(=S)NC3CC3)cc2)nc2n1CCc1ccccc1C2OC1CCN(C)CC1 (stereo not drawn)
> 6.52

Dear colleague, please send me the reported pKi for CN1CCC(OC2c3ccccc3CCn3cc(-c4ccc(CNC(=O)C(C)(C)C)cc4)nc32)CC1 (stereo not drawn) when you can.
> 6.52

Consider the molecule CN(C)CCCOC1c2ccccc2CCn2c1nc(I)c2I (stereo not drawn) . State its measured pKi.
> 6.00

// fetch pKi given entry C=C(C)Cc1nc2n(c1C#N)CCc1ccccc1C2OC1CCN(C)CC1 (stereo not drawn)
> 6.52

Kindly indicate its recorded pKi. Item: COc1ccccc1-c1nc2n(c1C)CCc1ccccc1C2OC1CCN(C)CC1 (stereo not drawn)
> 6.52

Please give the documented pKi of Cc1c(-c2ccc(C3=CCCC3)cc2)nc2n1CCc1ccccc1C2OC1CCN(C)CC1 (stereo not drawn)
> 7.52

State its pKi for this molecule: CN1CCC(OC2c3ccccc3CCn3cc(-c4cccs4)nc32)CC1 (stereo not drawn) [Example 47, oxalate]
> 6.52

Complete the entry with pKi for CN1CCC(OC2c3ccccc3CCn3cc(-c4ccccc4F)nc32)CC1 (stereo not drawn)
> 6.52

====

Consider the following compounds and their measured melting point readings.
Kindly provide the numeric value in °C only, without the unit symbol.

These recorded examples may help you get a feel for the data.
- compound: "CN1CCC(OC2c3ccccc3CCn3c2nc(I)c3C#N)CC1 (stereo not shown)"
  melting point / °C: 195
- compound: "CN1CCC(OC2c3cccc(-c4cccc(N)c4)c3CCn3cc(-c4ccccc4)nc32)CC1 (stereo not shown)"
  melting point / °C: 120
- compound: "CN1CCC(OC2c3cccc(Cc4ccccc4)c3CCn3cc(-c4ccccc4)nc32)CC1 (stereo not shown)"
  melting point / °C: 66

# input for lookup
Give melting point for CN1CCC(OC2c3ccccc3CCn3c2nc(-c2ccc(C(=O)OC(C)(C)C)cc2)c3C#N)CC1 (stereo not shown)
95

====

target: human H4 receptor (Homo sapiens); experiment: biochemical
pIC50: −log10 of the molar value. Where a name gives a salt, the structure may show the parent alone.
property measured: pIC50

A selection of reference data follows.
- compound: "CN1CCC(OC2c3ccccc3CCn3cc(C=CCOc4ccccc4)nc32)CC1 (centres unmarked)"
  system name: "human H4 receptor (Homo sapiens)"
  property measured: "pIC50"
  val: "> 7.52"
- compound: "CSc1ccc(-c2cn3c(n2)C(OC2CCN(C)CC2)c2ccccc2CC3)cc1 (centres unmarked)"
  system name: "human H4 receptor (Homo sapiens)"
  property measured: "pIC50"
  val: "> 7.52"
- compound: "Cc1c(-c2ccccc2F)nc2n1CCc1ccccc1C2OC1CCN(C)CC1 (centres unmarked)"
  system name: "human H4 receptor (Homo sapiens)"
  property measured: "pIC50"
  val: "> 7.52"
- compound: "CN1CCC(OC2c3ccccc3CCn3cc(-c4ccc(C(F)F)cc4)nc32)CC1 (centres unmarked)"
  system name: "human H4 receptor (Homo sapiens)"
  property measured: "pIC50"
  val: "> 6.52"
- compound: "CN1CCC(OC2c3ccccc3CCn3cc(-c4ccc(CC#N)cc4)nc32)CC1 (centres unmarked) [Example 33, oxalate]"
  system name: "human H4 receptor (Homo sapiens)"
  property measured: "pIC50"
  val: "> 6.52"

Respond only with pIC50 recorded for CN1CCC(OC2c3ccccc3CCn3cc(-c4cccc(F)c4)nc32)CC1 (centres unmarked) [Example 68, oxalate]
> 6.52

Return pIC50 (reported value) for this compound: CN1CCC(OC2c3ccccc3CCn3cc(SCc4cccs4)nc32)CC1 (centres unmarked) [Example 88, oxalate]
> 6.00

Item CN1CCC(OC2c3ccccc3CCn3cc(C=CCc4ccccc4)nc32)CC1 (centres unmarked) [Example 76, oxalate] : provide pIC50
> 6.52

====

biological target: human H4 receptor (Homo sapiens); assay: biochemical
pIC50: −log10 of the molar value. Where a name gives a salt, the structure may show the parent alone.
property measured: pIC50

Recorded pIC50, per entry:
- compound: "C=CCc1cn2c(n1)C(OC1CCN(C)CC1)c1ccccc1CC2 (centres unmarked) [Example 30, oxalate]"
  property measured: "pIC50"
  val: "> 6.52"
- compound: "Cc1ccc(-c2cn3c(n2)C(OC2CCN(C)CC2)c2ccccc2CC3)c(Cl)c1 (centres unmarked) [Example 75, oxalate]"
  property measured: "pIC50"
  val: "> 7.52"
- compound: "Cc1c(-c2ccc(N3CCN(C(C)(C)C)C3=O)cc2)nc2n1CCc1ccccc1C2OC1CCN(C)CC1 (centres unmarked) [Example 140]"
  property measured: "pIC50"
  val: "> 6.52"

Entry CN1CCC(OC2c3ccccc3CCn3cc(C4=CCN(C(=O)OC(C)(C)C)CC4)nc32)CC1 (centres unmarked) [Example 74, oxalate] needs its pIC50 filled in; supply it.
> 6.52

Give recorded pIC50. CN1CCC(OC2c3ccccc3CCn3cc(-c4ccccc4Cl)nc32)CC1 (single isomer, unassigned) [Example 54B]
> 7.52

Given the compound CN1CCC(OC2c3ccccc3CCn3c2nc(-c2ccccc2)c3C(F)(F)F)CC1 (centres unmarked) [Example 255] , write its reported pIC50.
> 6.52

# return recorded pIC50 for entry CN1CCC(OC2c3ccccc3CCn3cc(C4=CCCC4)nc32)CC1 (centres unmarked) [Example 65]
> 6.00

Please indicate pIC50 recorded for CN1CCC(OC2c3ccccc3CCn3cc(-c4ccc(Br)cc4)nc32)CC1 (centres unmarked) [Example 81]
> 7.52

====

Listing: Ki of selected molecules
target: human H4 receptor (Homo sapiens, UniProt Q9H3N8); assay: biochemical
Counter-ions that a name gives are not always drawn.

Sample records with Ki:
- molecule: "Cc1c(-c2ccc(C=CC(=O)OC(C)(C)C)cc2)nc2n1CCc1ccccc1C2OC1CCN(C)CC1 (stereo not shown)"
  system name: "human H4 receptor (Homo sapiens, UniProt Q9H3N8)"
  property measured: "Ki"
  val: "< 30 nM"
- molecule: "C=C(C)Cc1nc2n(c1C)CCc1ccccc1C2OC1CCN(C)CC1 (stereo not shown)"
  system name: "human H4 receptor (Homo sapiens, UniProt Q9H3N8)"
  property measured: "Ki"
  val: "< 300 nM"
- molecule: "CN1CCC(OC2c3ccccc3CCn3cc(-c4ccccc4[N+](=O)[O-])nc32)CC1 (stereo not shown)"
  system name: "human H4 receptor (Homo sapiens, UniProt Q9H3N8)"
  property measured: "Ki"
  val: "< 300 nM"
- molecule: "Cc1c(-c2ccc(N)cc2)nc2n1CCc1ccccc1C2OC1CCN(C)CC1 (stereo not shown)"
  system name: "human H4 receptor (Homo sapiens, UniProt Q9H3N8)"
  property measured: "Ki"
  val: "< 300 nM"
- molecule: "Cc1c(C(=O)N(C)Cc2ccccc2)nc2n1CCc1ccccc1C2OC1CCN(C)CC1 (stereo not shown)"
  system name: "human H4 receptor (Homo sapiens, UniProt Q9H3N8)"
  property measured: "Ki"
  val: "< 1000 nM"
- molecule: "Cc1c(-c2ccc(SC(C)(C)CCO)cc2)nc2n1CCc1ccccc1C2OC1CCN(C)CC1 (stereo not shown)"
  system name: "human H4 receptor (Homo sapiens, UniProt Q9H3N8)"
  property measured: "Ki"
  val: "< 30 nM"
- molecule: "Cc1cc(C(F)(F)F)ccc1-c1cn2c(n1)C(OC1CCN(C)CC1)c1ccccc1CC2 (stereo not shown)"
  system name: "human H4 receptor (Homo sapiens, UniProt Q9H3N8)"
  property measured: "Ki"
  val: "< 300 nM"
- molecule: "CN1CCC(OC2c3ccccc3CCn3cc(C=CC(C)(C)C)nc32)CC1 (stereo not shown)"
  system name: "human H4 receptor (Homo sapiens, UniProt Q9H3N8)"
  property measured: "Ki"
  val: "< 30 nM"
- molecule: "Cc1c(C(=O)N(C)c2ccccc2)nc2n1CCc1ccccc1C2OC1CCN(C)CC1 (stereo not shown)"
  system name: "human H4 receptor (Homo sapiens, UniProt Q9H3N8)"
  property measured: "Ki"
  val: "< 1000 nM"
- molecule: "Cc1nc2n(c1-c1ccccc1)CCc1ccccc1C2OC1CCN(C)CC1 (stereo not shown) [Example 123, oxalate]"
  system name: "human H4 receptor (Homo sapiens, UniProt Q9H3N8)"
  property measured: "Ki"
  val: "< 300 nM"

Name the recorded Ki of the item C=CCCc1cccc2c1CCn1cc(-c3ccccc3)nc1C2OC1CCN(C)CC1.O=C(O)C(=O)O (stereo not shown) [Example 237, oxalate] in your answer.
< 1000 nM

Find the measured Ki of Cc1c(-c2ccccc2)nc2n1CCc1ccccc1C2OC1CCN(C)CC1 (single isomer, unassigned) [Example 135B] and report it.
< 30 nM

Consider the molecule CN1CCC(OC2c3ccccc3CCn3cc(-c4ccc(CN5C(=O)OC(C)(C)C5=O)cc4)nc32)CC1 (stereo not shown) and give its recorded Ki.
< 300 nM

Report Ki for CN1CCC(OC2c3ccccc3CCn3cc(-c4ccc(N(C)C(=O)C(C)(C)C)cc4)nc32)CC1 (stereo not shown) [Example 101, oxalate]
< 300 nM

Determine from records and report Ki for CC(C)c1ccc(-c2cn3c(n2)C(OC2CCN(C)CC2)c2ccccc2CC3)cc1 (stereo not shown) [Example 32, oxalate]
< 300 nM

Name the recorded Ki of the molecule listed here: CN1CCC(OC2c3ccccc3CCn3cc(-c4ccc(CN5CCCC5=O)cc4)nc32)CC1 (stereo not shown)
< 1000 nM

Origin of measurements: patent US9255101B2
